assayed-target: T1, recombinant hUHRF1 (human, UniProt Q96T88-1 1-793)
T1 chain: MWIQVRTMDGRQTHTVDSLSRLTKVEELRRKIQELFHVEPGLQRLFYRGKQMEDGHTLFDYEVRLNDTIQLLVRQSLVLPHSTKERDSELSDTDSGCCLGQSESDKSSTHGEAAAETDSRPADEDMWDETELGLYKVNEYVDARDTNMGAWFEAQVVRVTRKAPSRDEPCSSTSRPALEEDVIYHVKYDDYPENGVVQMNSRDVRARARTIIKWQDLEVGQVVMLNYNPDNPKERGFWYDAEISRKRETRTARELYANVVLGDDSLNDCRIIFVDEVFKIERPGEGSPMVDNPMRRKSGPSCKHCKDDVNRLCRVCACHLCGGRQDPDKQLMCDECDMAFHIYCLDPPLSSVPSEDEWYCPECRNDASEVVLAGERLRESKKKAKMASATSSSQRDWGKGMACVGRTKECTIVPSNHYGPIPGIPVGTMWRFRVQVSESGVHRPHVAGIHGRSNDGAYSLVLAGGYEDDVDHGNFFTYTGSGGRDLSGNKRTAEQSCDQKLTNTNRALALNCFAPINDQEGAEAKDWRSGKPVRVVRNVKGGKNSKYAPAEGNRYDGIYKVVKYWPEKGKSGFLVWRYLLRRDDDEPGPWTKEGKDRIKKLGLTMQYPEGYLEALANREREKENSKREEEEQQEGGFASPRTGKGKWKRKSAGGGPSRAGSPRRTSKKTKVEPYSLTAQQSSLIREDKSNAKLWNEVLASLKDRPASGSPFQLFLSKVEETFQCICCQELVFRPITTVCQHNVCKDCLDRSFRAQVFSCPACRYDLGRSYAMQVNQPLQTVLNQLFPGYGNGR
assay-remarks: MST
pKd: −log10 of the molar value.

binder: ARTKQTARKSTGGKA (trimethyl-lysine at K9) [H3K9me3 peptide (titrated in MST)]
pKd: 5.82
